Data credit: patent US12643889B2

measurement.description: Mouse pharmacokinetic assay
Type: in vivo, male ICR mice
reported.conditions: male, ICR, plasma, oral gavage administration 5 mg/kg
Catalogue of molecules with associated AUC(0-t)
Note: unit ng·h/mL is implicit; provide only the numeric part.

C[C@H](NC(=O)c1c(C(F)F)nn(C)c1Oc1cccc(C(C)(F)F)c1)c1ccc(C(=O)O)cc1 [Compound I-5] : 2710
CCc1cccc(Oc2c(C(=O)N[C@@H](C)c3ccc(C(=O)O)cc3)c(C(F)F)nn2C)c1 [Compound I-1] : 2140
C[C@H](NC(=O)c1c(C(F)F)nn(C)c1Sc1cccc(C(F)(F)F)c1)c1ccc(C(=O)O)cc1 [Compound I-35] : 3060

Next up:
Ask | Record request: AUC(0-t) value, item C[C@H](NC(=O)c1c(C(F)F)nn(C)c1Oc1cccc(CC(F)(F)F)c1)c1ccc(C(=O)O)cc1 [Compound I-6]
Reply | 4440

---

Listing of recorded half-life by entry.
measurement.description: Canine pharmacokinetic assay
Assay type: in vivo, male Beagle dogs
reported.conditions: male, Beagle, dog, plasma; canine; intravenous administration 1 mg/kg
Please state the figure in h; there is no need to write the unit.

C[C@H](NC(=O)c1c(C(F)F)nn(C)c1Oc1cccc(C(F)(F)F)c1)c1ccc(C(=O)O)cc1 [Control Compound, reference compound] : 9.36

Proceeding to the next molecule to report its half-life.
Ask | half-life lookup needed for `C[C@H](NC(=O)c1c(C(F)F)nn(C)c1Oc1cccc(C(C)(F)F)c1)c1ccc(C(=O)O)cc1` , thanks.
Reply | 9.73

---

system.name: UniProtKB P35408
Sequence (P35408 whole entry): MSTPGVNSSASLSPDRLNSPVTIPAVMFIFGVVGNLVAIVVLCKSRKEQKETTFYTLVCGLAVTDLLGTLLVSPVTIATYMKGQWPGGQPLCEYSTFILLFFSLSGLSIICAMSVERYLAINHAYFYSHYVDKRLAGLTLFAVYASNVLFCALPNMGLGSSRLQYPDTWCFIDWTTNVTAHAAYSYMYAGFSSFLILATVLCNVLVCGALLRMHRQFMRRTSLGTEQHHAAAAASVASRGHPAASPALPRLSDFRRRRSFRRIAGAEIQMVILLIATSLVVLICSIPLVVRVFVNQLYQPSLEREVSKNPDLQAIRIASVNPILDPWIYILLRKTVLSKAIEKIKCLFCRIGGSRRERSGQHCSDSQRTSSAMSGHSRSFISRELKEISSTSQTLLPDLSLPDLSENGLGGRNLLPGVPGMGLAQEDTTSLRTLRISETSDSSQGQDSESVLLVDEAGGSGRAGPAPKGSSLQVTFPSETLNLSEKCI
measurement.description: Assay of calcium current inhibition on EP4 receptor (FLIPR, 293 cells)
Type: cell-based
Set-up: expressed in transfected cells; host or cells: 293 cells
reported.conditions: 293 cells overexpressing human EP4; PGE2 at EC80; FLIPR
Catalogue of compounds with associated pIC50
Interpret pIC50 as the negative base-10 log of the concentration measured in mol/L.

# count of solved cases: 3
C[C@H](NC(=O)c1c(C(F)F)nn(C)c1Oc1ccc(-c2ccccc2)cc1)c1ccc(C(=O)O)cc1 : 8.07
C[C@H](NC(=O)c1c(C(F)F)nn(C)c1Oc1cccc(S(F)(F)(F)(F)F)c1)c1ccc(C(=O)O)cc1 : 8.10
CCc1cc(Oc2c(C(=O)N[C@@H](C)c3ccc(C(=O)O)cc3)c(C(F)F)nn2C)ccc1F : 8.13

Ask | Which measured pIC50 value corresponds to `C[C@H](NC(=O)c1c(C(F)F)nn(C)c1Oc1csc(C(F)(F)F)c1)c1ccc(C(=O)O)cc1` ?
Reply | 7.82

Ask | // lookup pIC50 for `Cc1cc(Oc2c(C(=O)N[C@@H](C)c3ccc(C(=O)O)cc3)c(C(F)F)nn2C)cs1`
Reply | 7.80

Ask | I have this compound here, `C[C@H](NC(=O)c1c(C(F)F)nn(C)c1Oc1ccc(F)c(C(C)(F)F)c1)c1ccc(C(=O)O)cc1` , and I need its recorded pIC50.
Reply | 7.85

Ask | Bench note: what pIC50 did `Cc1nn(C)c(Oc2cccc(C(C)(F)F)c2)c1C(=O)N[C@@H](C)c1ccc(C(=O)O)cc1` show?
Reply | 7.78

Ask | Please report the recorded pIC50 for `C[C@H](NC(=O)c1c(C(F)F)nn(C)c1Oc1cccc(C(C)(F)F)c1)c1ccc(C(=O)O)cc1` .
Reply | 7.92

Ask | Return reported pIC50; argument: `C[C@H](NC(=O)c1c(C(F)F)nn(C)c1Oc1cccc(CC(F)(F)F)c1)c1ccc(C(=O)O)cc1`
Reply | 8.10
